Answer each item with its documented MRT inf.
# assay_name: Pharmacokinetic study in rats after oral administration of cinobufacini capsule (UPLC-MS/MS of plasma)
# Assay type: in vivo, rat
# measurement_setup: male, Sprague-Dawley, in vivo; rat plasma, oral cinobufacini capsule 0.9 g/kg (low), mean ± SD, n = 6; read-out: MRT0-∞
One number for each entry, in h.

Completed entries (count: 2):
compound_string: C[C@]12CC[C@H]3[C@@H](CC[C@]4(O)C[C@@H](O)CC[C@]34C=O)[C@@]1(O)CC[C@@H]2c1ccc(=O)oc1
MRT inf, h: 3.81

compound_string: C[C@]12CC[C@H](O)C[C@H]1CC[C@@H]1[C@@H]2CC[C@]2(C)[C@@H](c3ccc(=O)oc3)[C@@H](O)[C@H]3O[C@]132
MRT inf, h: 4.74

Please supply MRT inf for each of the following items, keeping them in order.
1. C[C@]12CC[C@H](O)C[C@@]1(O)CC[C@@H]1[C@@H]2CC[C@]2(C)[C@@H](c3ccc(=O)oc3)CC[C@]12O
2. C[C@]12CC[C@H](O)C[C@H]1CC[C@@H]1[C@@H]2[C@H](O)C(=O)[C@]2(C)[C@@H](c3ccc(=O)oc3)CC[C@]12O
3. C[C@]12CC[C@H](O)C[C@@]1(O)CC[C@@H]1[C@@H]2CC[C@]2(C)[C@@H](c3ccc(=O)oc3)[C@@H](O)[C@H]3O[C@]132

[out]
1: 0.64; 2: 1.47; 3: 2.95
